Target: Beta-secretase (BACE) (Homo sapiens, UniProt Q9Y5Z0+P56817)
Assay: Inhibition of human beta secretase in MBP-C125 assay.
Format: protein assay
outcome measure: IC50 (µM)
Use µM as the unit, but write only the number.

// returns reported IC50 for input CCCN(CCC)C(=O)c1cccc(C(=O)N[C@@H](Cc2cc(F)cc(F)c2)[C@@H](O)C[C@@H](CC)C(=O)NCc2ccccc2)c1
1.4

Look up IC50 for this compound: CCCN(CCC)C(=O)c1cccc(C(=O)N[C@@H](Cc2cc(F)cc(F)c2)[C@@H](O)C[C@@H](Cc2ccccc2)C(=O)NC[C@H]2CC[C@H](C(=O)O)CC2)c1
27

Please look up its IC50: CCCN(CCC)C(=O)c1cccc(C(=O)N[C@@H](Cc2cc(F)cc(F)c2)[C@@H](O)C[C@@H](CC)C(=O)NCCCCCCCC(=O)OC)c1
0.41

Origin of values: ChEMBL document CHEMBL1138824
